Target: recombinant human Cyp19 enzyme (Homo sapiens)
Sequence (P11511 1-503): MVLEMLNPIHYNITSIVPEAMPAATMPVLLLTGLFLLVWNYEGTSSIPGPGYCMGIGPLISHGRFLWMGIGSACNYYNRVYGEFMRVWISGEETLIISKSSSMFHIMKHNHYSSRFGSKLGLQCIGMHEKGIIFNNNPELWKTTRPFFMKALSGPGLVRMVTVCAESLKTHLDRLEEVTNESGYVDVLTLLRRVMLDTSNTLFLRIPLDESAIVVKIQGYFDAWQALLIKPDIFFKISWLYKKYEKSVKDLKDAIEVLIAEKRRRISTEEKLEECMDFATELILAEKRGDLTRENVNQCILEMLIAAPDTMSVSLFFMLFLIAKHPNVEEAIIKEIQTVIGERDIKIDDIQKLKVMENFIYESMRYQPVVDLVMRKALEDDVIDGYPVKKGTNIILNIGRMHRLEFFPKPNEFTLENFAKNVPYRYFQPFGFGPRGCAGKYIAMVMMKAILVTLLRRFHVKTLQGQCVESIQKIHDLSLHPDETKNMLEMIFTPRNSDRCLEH
Experimental protocol: Cyp19/MFC high throughput inhibition kit (Becton Dickinson)
Condition details: recombinant human Cyp19 supersomes, MFC substrate
Endpoint label: pIC50
Interpret pIC50 as the negative base-10 log of the concentration measured in mol/L.

[[record]]
molecule = "N#Cc1ccc(C2COCc3cncn32)cc1 (single isomer, unassigned) [Example 1]"
target = "recombinant human Cyp19 enzyme (Homo sapiens)"
assay_result = 8.32


Now look at this entry.
[Q] Reported pIC50, molecule N#Cc1ccc(C2COCc3cncn32)cc1 (centres unmarked) [antipode of 1] : ____
[A] 5.08
